- TARGET OF ASSAY: HLA-A*11:01
- PROTOCOL: IEDB peptide-MHC binding, purified MHC/competitive/radioactivity; filed as Kd, often an IC50 or EC50 that approximates it; bounds were set here for any values at or beyond the usual limits of such assays
- MEASUREMENT CONDITIONS: source organism: Mammarenavirus machupoense
OBSERVATION TYPE: Kd

Q. Endpoint output: Kd of DTNLITCNDH . Value?
A. ≥ 69.7 µM

###

So I've got a bunch of sequences here, and I need their Kd values.
- TARGET OF ASSAY: HLA-B*08:01
- PROTOCOL: IEDB peptide-MHC binding, purified MHC/direct/fluorescence; filed as Kd, often an IC50 or EC50 that approximates it; bounds were set here for any values at or beyond the usual limits of such assays
- MEASUREMENT CONDITIONS: source organism: Ravn virus - Ravn, Kenya, 1987

>  <SEQ TEXT>
IHLDKGGQF

>  <Kd>
≥ 20 µM

$$$$

Turning now to a further sequence:
Q. Missing value: Kd, HLA-B*08:01, entry ISDPLTSGL . Fill in?
A. ≥ 20 µM

###

- TARGET OF ASSAY: HLA-B*07:02
- PROTOCOL: IEDB peptide-MHC binding, purified MHC/competitive/fluorescence; filed as Kd, often an IC50 or EC50 that approximates it; bounds were set here for any values at or beyond the usual limits of such assays
- MEASUREMENT CONDITIONS: source organism: Bacillus anthracis str. A0488
OBSERVATION TYPE: Kd

Q. I have this sequence here, WDAYIPHYV , and I need its recorded Kd.
A. ≥ 5 µM

###

- TARGET OF ASSAY: HLA-B*08:02
- PROTOCOL: IEDB peptide-MHC binding, purified MHC/direct/fluorescence; filed as Kd, often an IC50 or EC50 that approximates it; bounds were set here for any values at or beyond the usual limits of such assays
- MEASUREMENT CONDITIONS: source organism: Clostridium botulinum NCTC 2916
pKd: −log10 of the molar value.
OBSERVATION TYPE: pKd

Q. Enter reported pKd observed with HLA-B*08:02 for RVYINVVVK
A. ≤ 4.70

###

- TARGET OF ASSAY: HLA-A*31:01
- PROTOCOL: IEDB peptide-MHC binding, purified MHC/competitive/radioactivity; filed as Kd, often an IC50 or EC50 that approximates it; bounds were set here for any values at or beyond the usual limits of such assays
- MEASUREMENT CONDITIONS: source organism: Mammarenavirus juninense
OBSERVATION TYPE: Kd (µM)
Answers are plain numbers, in µM.

Q. Consider the sequence shown here: AVAKCNLNH What is its recorded Kd?
A. 0.688

###

- TARGET OF ASSAY: HLA-B*57:01
- PROTOCOL: IEDB peptide-MHC binding, purified MHC/competitive/fluorescence; filed as Kd, often an IC50 or EC50 that approximates it; bounds were set here for any values at or beyond the usual limits of such assays
- MEASUREMENT CONDITIONS: source organism: Salmonella enterica subsp. enterica serovar Paratyphi A str. AKU_12601
pKd: −log10 of the molar value.
OBSERVATION TYPE: pKd

Q. Give the measured pKd of AMDTHLYFE .
A. ≤ 4.70

###

- TARGET OF ASSAY: HLA-A*02:03
- PROTOCOL: IEDB peptide-MHC binding, purified MHC/direct/fluorescence; filed as Kd, often an IC50 or EC50 that approximates it; bounds were set here for any values at or beyond the usual limits of such assays
- MEASUREMENT CONDITIONS: source organism: Influenza A virus (A/England/654/2007(H1N1))
pKd: −log10 of the molar value.
OBSERVATION TYPE: pKd

Q. Sample WTGMVDGWY — what was its pKd?
A. ≤ 4.70
